# key: entry, value: IC50
Target: Estrogen Receptor (ERα) in MCF-7 cells (Homo sapiens (Human), UniProt P03372)
Sequence (P03372 whole entry): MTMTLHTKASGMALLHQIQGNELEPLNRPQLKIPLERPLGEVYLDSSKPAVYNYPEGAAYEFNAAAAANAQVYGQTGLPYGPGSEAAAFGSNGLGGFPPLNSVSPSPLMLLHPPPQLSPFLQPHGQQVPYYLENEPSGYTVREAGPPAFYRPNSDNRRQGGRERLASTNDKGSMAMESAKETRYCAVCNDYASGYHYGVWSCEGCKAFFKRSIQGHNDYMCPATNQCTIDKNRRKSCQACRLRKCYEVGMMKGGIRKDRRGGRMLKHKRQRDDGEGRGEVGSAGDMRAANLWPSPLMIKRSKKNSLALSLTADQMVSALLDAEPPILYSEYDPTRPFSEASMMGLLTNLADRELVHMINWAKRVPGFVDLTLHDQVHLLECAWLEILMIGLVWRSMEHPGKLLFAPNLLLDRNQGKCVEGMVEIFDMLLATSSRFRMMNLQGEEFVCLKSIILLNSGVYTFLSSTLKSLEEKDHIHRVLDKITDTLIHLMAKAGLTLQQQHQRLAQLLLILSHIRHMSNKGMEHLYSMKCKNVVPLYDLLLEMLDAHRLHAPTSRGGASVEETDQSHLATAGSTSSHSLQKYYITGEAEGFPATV
Experiment: MCF-7 ER down-regulation assay (immuno-fluorescence)
Assay type: cell-based
State the value with its unit after it.

INSERT INTO results (test_smiles, result) VALUES
  ('CC(C)CN1[C@H](c2ccc(NC3CN(CCCF)C3)cn2)c2ccc3[nH]ncc3c2C[C@H]1C', '0.55 nM'),
  ('C[C@@H]1Cc2c(ccc3[nH]nc(F)c23)[C@@H](c2ccc(NC3CN(CCCF)C3)c(F)n2)N1CC(F)(F)F', '0.048 nM');

Here is another compound to look at.
Indicate the recorded IC50 value for this compound: "COc1cc(NC2CN(CCCF)C2)ccc1[C@@H]1c2ccc3[nH]ncc3c2C[C@@H](C)N1CC1(F)CC1" 0.35 nM

---

Assay: Human plasma protein binding (equilibrium dialysis)
Assay type: in vitro ADME
Settings: dialysis 18 hours
measured-parameter: Human plasma protein binding (% free)

Reference set (3 entries):
INSERT INTO results (compound, measured_parameter, result) VALUES
  ('COC[C@](C)(F)CN1[C@H](c2ccc(OC3CN(CCCF)C3)cc2OC)c2ccc3[nH]ncc3c2C[C@H]1C (single isomer, unassigned) [Example 13]', 'Human plasma protein binding (% free)', '6.4 % free'),
  ('COc1cc(NC2CN(CCCF)C2)ccc1[C@@H]1c2ccc3[nH]ncc3c2C[C@@H](C)N1CC(C)(F)F', 'Human plasma protein binding (% free)', '4.3 % free'),
  ('COc1cc(NC2CN(CCCF)C2)ccc1[C@@H]1c2ccc3[nH]ncc3c2C[C@@H](C)N1CC(F)(F)F', 'Human plasma protein binding (% free)', '6 % free');

Here is another compound to look at.
Indicate the recorded Human plasma protein binding (% free) value for this compound: "CC1(C)Cc2c(ccc3[nH]ncc23)[C@@H](c2ccc(NC3CN(CCCF)C3)cn2)N1CC(F)(F)F" 14 % free

---

Test: Human hepatocyte assay (metabolic stability)
Type: in vitro ADME
Conditions: human hepatocytes
# key: entry, value: hepatocyte CLint at 1 µM
A number alone suffices; assume µL/min/1e6 cells.

Reference set (5 entries):
INSERT INTO results (test_smiles, measured_parameter, units_symbol, numeric_value) VALUES
  ('COc1cc(NC2CN(CCCF)C2)ccc1[C@@H]1c2ccc3[nH]ncc3c2C[C@@H](C)N1CC(F)(F)F', 'hepatocyte CLint at 1 µM', 'µL/min/1e6 cells', 5),
  ('COCC(F)(F)CN1[C@H](c2ccc(NC3CN(CCCF)C3)cn2)c2ccc3[nH]ncc3c2C[C@H]1C', 'hepatocyte CLint at 1 µM', 'µL/min/1e6 cells', 6),
  ('C[C@@H]1Cc2c(ccc3[nH]ncc23)[C@@H](c2ccc(NC3CN(CCCF)C3)cn2)N1CC(F)(F)F', 'hepatocyte CLint at 1 µM', 'µL/min/1e6 cells', 6),
  ('C[C@@H]1Cc2c(ccc3[nH]ncc23)[C@@H](c2ccc(NC3CN(CCCF)C3)cn2)N1CC1(F)CC1', 'hepatocyte CLint at 1 µM', 'µL/min/1e6 cells', 5),
  ('COCC(F)(F)CN1[C@H](c2ccc(NC3CN(CCCF)C3)cc2OC)c2ccc3[nH]ncc3c2C[C@H]1C', 'hepatocyte CLint at 1 µM', 'µL/min/1e6 cells', 11);

Indicate the recorded hepatocyte CLint at 1 µM value for this molecule: "C[C@@H]1Cc2c(ccc3[nH]ncc23)[C@@H](c2ccc(NC3CN(CCCF)C3)cn2)N1CC(F)F" 5

Indicate the recorded hepatocyte CLint at 1 µM value for this molecule: "C[C@@H]1Cc2c(ccc3[nH]ncc23)[C@@H](c2ncc(NC3CN(CCCF)C3)cc2F)N1CC1(F)CC1" 3

Indicate the recorded hepatocyte CLint at 1 µM value for this molecule: "C[C@@H]1Cc2c(ccc3[nH]ncc23)[C@@H](c2c(F)cc(NC3CN(CCCF)C3)cc2F)N1CC1(F)CC1" 7

Indicate the recorded hepatocyte CLint at 1 µM value for this molecule: "COc1cc(NC2CN(CCCF)C2)ccc1[C@@H]1c2ccc3[nH]ncc3c2C[C@@H](C)N1CC1(F)CC1" 2

Indicate the recorded hepatocyte CLint at 1 µM value for this molecule: "COc1cc(NC2CN(CCCF)C2)ccc1[C@@H]1c2ccc3[nH]ncc3c2C[C@@H](C)N1CC(C)(F)F" 5

Indicate the recorded hepatocyte CLint at 1 µM value for this molecule: "COc1cc(NC2CN(CCCF)C2)ccc1[C@@H]1c2ccc3[nH]ncc3c2C[C@@H](C)N1CC(F)F" 6

Indicate the recorded hepatocyte CLint at 1 µM value for this molecule: "C[C@@H]1Cc2c(ccc3[nH]ncc23)[C@@H](c2ccc(NC3CN(CCCF)C3)cc2)N1CC(F)F" 4
